Measured values drawn from patent US20210388087A1 for this set.

# TEST TARGET: T1, human CD137-Fc (human, biotin-labeled)
# T1 construct: if 90 already holds the Fc, drop the second piece; also called biotin-labeled human CD137 fused to human IgG1 Fc fragment; biotin-human CD137-Fc; not shown: human IgG1 Fc fragment
# ASSAY EXPLANATION: bead ELISA on biotin-human CD137-Fc with 62.5 pmol free human Fc (control competitor)
MEASURED PROPERTY: ELISA signal
Lab note: write the figure by itself, no unit.

Worked cases, ELISA signal given:
BINDER	MEASURED PROPERTY	VAL
DXDU01_3#094 (antibody, V domains shown, Human IgG1; light chain GLS3000 (kappa); also called dBBDu121) VH: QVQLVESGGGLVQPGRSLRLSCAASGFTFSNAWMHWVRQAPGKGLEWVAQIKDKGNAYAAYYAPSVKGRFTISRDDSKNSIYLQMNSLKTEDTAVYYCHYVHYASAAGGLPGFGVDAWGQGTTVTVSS VL: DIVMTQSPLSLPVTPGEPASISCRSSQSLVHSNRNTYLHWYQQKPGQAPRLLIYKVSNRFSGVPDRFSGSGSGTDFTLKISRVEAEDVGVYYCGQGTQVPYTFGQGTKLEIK	ELISA signal	108000
DXDU01_3#051 (antibody, V domains shown, Human IgG1; light chain GLS3000 (kappa); also called dBBDu127) VH: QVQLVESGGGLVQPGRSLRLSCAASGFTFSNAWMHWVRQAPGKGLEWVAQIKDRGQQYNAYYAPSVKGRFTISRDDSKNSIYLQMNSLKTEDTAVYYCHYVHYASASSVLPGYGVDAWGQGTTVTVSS VL: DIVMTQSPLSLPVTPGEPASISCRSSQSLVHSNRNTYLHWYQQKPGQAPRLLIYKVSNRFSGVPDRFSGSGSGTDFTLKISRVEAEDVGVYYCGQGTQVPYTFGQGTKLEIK	ELISA signal	128000

Now, please, on to the next binder.
Q: So what does the record say about ELISA signal for DXDU01_3#019 (antibody, V domains shown, Human IgG1; light chain GLS3000 (kappa); also called dBBDu125) VH: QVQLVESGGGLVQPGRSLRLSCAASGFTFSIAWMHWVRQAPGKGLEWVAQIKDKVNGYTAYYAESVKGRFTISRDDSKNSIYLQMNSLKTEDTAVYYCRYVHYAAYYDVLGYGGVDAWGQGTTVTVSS VL: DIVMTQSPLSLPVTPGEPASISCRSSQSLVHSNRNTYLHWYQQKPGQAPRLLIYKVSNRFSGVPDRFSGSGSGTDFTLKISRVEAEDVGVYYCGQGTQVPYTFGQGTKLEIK ?
Result: 172000
